- assayNotes: Caspase-3/7 induction in CHO-K1 cells by small molecules, qHTS cell viability counter screen (AID 1346979); further: nearly all actives have a fitted effect of over 35% in size
- experimentalSetup: CellTiter-Fluor fluorescence, 17 h; series mostly up to 92.4 µM
Results filed as inconclusive are left out. Calls of active or inactive are those of the source. The call rests on the fitted dose curve; in most records, active means well fitted cell-killing curve with a large enough effect in the repeat runs; inconclusive means weak or mixed curves, or effect the other way; inactive means no such curve, though single readings can be large or run the other way.
Classes used: true (active), false (inactive)

- compound: "C[C@@H](C1=C(CCN(C)C)Cc2ccccc21)c1ccccn1"
  classLabel: "false"
- compound: "O=C1Nc2cc(Cl)ccc2Oc2ccccc21"
  classLabel: "false"
- compound: "SC1CCCC1"
  classLabel: "false"
- compound: "CC(C)(C)c1ccc(OCC2CO2)cc1 (stereo not drawn)"
  classLabel: "true"
- compound: "C=Cc1c(C)c2cc3[nH]c(cc4nc(cc5nc(cc1[nH]2)C(C)=C5CCC(=O)O)C(CCC(=O)O)=C4C)c(C)c3C=C"
  classLabel: "true"
- compound: "O=C(NN1CCCC1)NS(=O)(=O)c1ccc(Cl)cc1"
  classLabel: "false"
- compound: "O=C(O)C(c1ccc(Cl)cc1)c1ccc(Cl)cc1"
  classLabel: "false"
- compound: "O=C(O)Cc1cc(I)c(Oc2ccc(O)c(I)c2)c(I)c1"
  classLabel: "false"
- compound: "CCCCCCCCCC(=O)OCC"
  classLabel: "false"
- compound: "O=CNc1ccccc1"
  classLabel: "false"
- compound: "CN(C)CCCOc1nn(Cc2ccccc2)c2ccccc12"
  classLabel: "false"
- compound: "O=C(O)/C=C/c1cnc[nH]1"
  classLabel: "false"
- compound: "FC(F)(F)C(F)(F)C(F)(F)C(F)(F)C(F)(F)C(F)(F)CCI"
  classLabel: "false"
